assay.name: modulators of CIT2-GFP expression in yeast, confirmation, S. cerevisiae, GFP fusion, cherry picks, mother/daughter gates (AID 2274)
test.context: S. cerevisiae CIT2-GFP strain, flow cytometry, 3 h; at 10 µM; stronger effect = higher value
Below, each entry is listed alongside its reported GFP response, % of DMSO.
assay.endpoint: GFP response, % of DMSO (%)

structure_string=Cc1ccc(-c2nc(NC(=O)c3nn(C)cc3[N+](=O)[O-])sc2C)cc1C recorded_number=93.5
structure_string=CCN(CC)c1ccc(/C=C/c2ccc3ccc(OC)cc3[n+]2CC)cc1 recorded_number=107
structure_string=O=[N+]([O-])/C=C/c1cn(Cc2ccc(F)cc2)c2ccccc12 recorded_number=104

----------
assay.name: RPL19A-GFP modulators, yeast TOR pathway, confirmation, cell-based, S. cerevisiae, flow cytometry, cherry picks, mother/daughter gates (AID 2270)
test.context: S. cerevisiae RPL19A-GFP strain, 3 h, measured here: mother cell gate, at 10 µM, stronger effect = lower value, 100 = same GFP as DMSO wells
assay.endpoint: GFP response vs DMSO (%)

molecule="Cc1c(O)nc(SC2CC(=O)N(c3ccccc3)C2=O)[nH]c1=O (centres undefined)" measurement_units=% recorded_number=96.7
molecule=COc1cc(NC(=O)c2c(OC)cccc2OC)ccc1NC(=O)c1cc2ccccc2o1 measurement_units=% recorded_number=96.5
molecule=Cc1noc2ncnc(Sc3c(Cl)cccc3Cl)c12 measurement_units=% recorded_number=99.8
molecule=COCCNC(=O)c1ccccc1-c1nc(-c2ccccc2Cl)no1 measurement_units=% recorded_number=98.9
molecule=Cc1cccn2c(=O)c(/C=C(\C#N)C(N)=O)c(N3CCN(Cc4ccc5c(c4)OCO5)CC3)nc12 measurement_units=% recorded_number=102
molecule="Cc1nnc(NC(=O)c2csc3c2CCC(C)C3)s1 (centres undefined)" measurement_units=% recorded_number=93.3
molecule=O=C(NCCN1CCOCC1)c1ccc(CS(=O)(=O)Cc2ccccc2F)o1 measurement_units=% recorded_number=99.7
molecule=Cc1ccc(-c2csc(NC(=O)c3cccs3)n2)cc1 measurement_units=% recorded_number=99.6
molecule=COC(=O)/C(=C/c1c[nH]c2ccccc12)[N+](=O)[O-] measurement_units=% recorded_number=95.1

----------
assay.name: modulators of CIT2-GFP expression in yeast, confirmation, S. cerevisiae, GFP fusion, cherry picks, mother/daughter gates (AID 2274)
test.context: S. cerevisiae CIT2-GFP strain, flow cytometry, 3 h; measured here: daughter cell gate; at 10 µM; stronger effect = higher value
assay.endpoint: GFP response, % of DMSO (%)

structure_string=COc1ccc(OC)c(S(=O)(=O)ON2C(=O)c3ccccc3C2=O)c1 assay_endpoint="GFP response, % of DMSO" measurement_units=% recorded_number=119
structure_string=Cc1nnc(OCc2nc3ccccc3n2C)c2ccccc12 assay_endpoint="GFP response, % of DMSO" measurement_units=% recorded_number=96.4
structure_string=CCN1/C(=C/C(C)=C/c2sc3ccccc3[n+]2CC)Sc2ccccc21 assay_endpoint="GFP response, % of DMSO" measurement_units=% recorded_number=83.4
structure_string=COc1ccccc1-c1noc(-c2cc(OC)c(OC)c(OC)c2)n1 assay_endpoint="GFP response, % of DMSO" measurement_units=% recorded_number=96.5

----------
assay.name: inhibitors of fungal efflux pumps CDR1, CDR2, MDR1, pilot screen, validation compound set, multiplex, phenotypic (AID 588506);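 note: Nile Red retained in cells so higher fluorescence means more efflux inhibition; 0 = negative control wells and 1 = enniatin B 25 µM full block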
test.context: S. cerevisiae pump-expressing triplex, Nile Red efflux flow cytometry; at 10 µM; stronger effect = higher value; the pumps come from Candida albicans
Peptide text beside a SMILES is read from it. * marks the point of attachment. Boc = CC(C)(C)OC(=O)*
Classes are defined on efflux inhibition (fraction of control) with ranges band 1: < -0.1; band 2: ≥ -0.1 and < -0.01; band 3: ≥ -0.01

compound=COc1cc(C(=O)OCCCN(C)C)cc(OC)c1OC answer_label="band 2"
compound="CC(C)NCC(O)COc1ccc(CCOCC2CC2)cc1 (stereo unspecified)" answer_label="band 3"
compound=CCS(=O)(=O)Nc1cc(OC)c(OC)cc1Cc1nccc2cc(OC)c(OC)cc12 answer_label="band 3"
compound=CC(=O)OC[C@H]1O[C@@H](n2ncc(=O)[nH]c2=O)[C@H](OC(C)=O)[C@@H]1OC(C)=O answer_label="band 1"
compound="COc1ccc(NC(=O)C2C(=O)N(CCO)C3(C)CC2c2ccccc2O3)cc1 (stereo unspecified)" answer_label="band 1"
compound=O=C(c1ccccc1F)c1cc2c(cc1[N+](=O)[O-])OCCO2 answer_label="band 1"
compound=CCS(=O)(=O)CCn1c([N+](=O)[O-])cnc1C answer_label="band 3"
compound="CC(C)(C)OC(=O)N1CCCC1C(=O)NC(Cc1ccccc1)C(=O)O (stereo not drawn) (Boc-Pro-Phe-OH; configuration not given here)" answer_label="band 3"
compound=Fc1cc(F)cc(NC(=S)NCCCN2CCOCC2)c1 answer_label="band 1"
compound="Cc1ncc([N+](=O)[O-])n1CC(O)CCl (stereo unspecified)" answer_label="band 2"
compound=C/C(NC(=O)c1cccs1)=C1\C(=O)C[C@@H]2[C@H]1C2(C)C answer_label="band 2"
compound=COc1ccc(-c2coc3cc(O)cc(O)c3c2=O)cc1 answer_label="band 1"
compound="Cc1c(OCC(=O)NC(Cc2c[nH]c3ccc(O)cc23)C(=O)O)ccc2c3c(c(=O)oc12)CCC3 (stereo unspecified)" answer_label="band 1"
compound=CCOC(=O)Cc1c(C)nc(N)[nH]c1=O answer_label="band 3"
compound="CC(=O)N(CCC1(C(C)C)CCOC(C)(C)C1)Cc1ccco1 (stereo unspecified)" answer_label="band 2"
compound=COc1ccc(C(=O)Nc2nc3ccccc3c(=O)[nH]2)cc1 answer_label="band 2"
compound=CNC[C@H](O)c1ccc(O)c(O)c1 answer_label="band 1"
compound=COc1ccc(N2C(=O)[C@@H]3Cc4ccccc4CN3C2=O)cc1 answer_label="band 3"
compound="O=C1OC(=O)C2C1[C@@H]1CC[C@H]2O1 (stereo partly specified)" answer_label="band 1"
